- assay_system: Muscarinic acetylcholine receptor M5 (Homo sapiens)
- Sequence (P08912 whole entry): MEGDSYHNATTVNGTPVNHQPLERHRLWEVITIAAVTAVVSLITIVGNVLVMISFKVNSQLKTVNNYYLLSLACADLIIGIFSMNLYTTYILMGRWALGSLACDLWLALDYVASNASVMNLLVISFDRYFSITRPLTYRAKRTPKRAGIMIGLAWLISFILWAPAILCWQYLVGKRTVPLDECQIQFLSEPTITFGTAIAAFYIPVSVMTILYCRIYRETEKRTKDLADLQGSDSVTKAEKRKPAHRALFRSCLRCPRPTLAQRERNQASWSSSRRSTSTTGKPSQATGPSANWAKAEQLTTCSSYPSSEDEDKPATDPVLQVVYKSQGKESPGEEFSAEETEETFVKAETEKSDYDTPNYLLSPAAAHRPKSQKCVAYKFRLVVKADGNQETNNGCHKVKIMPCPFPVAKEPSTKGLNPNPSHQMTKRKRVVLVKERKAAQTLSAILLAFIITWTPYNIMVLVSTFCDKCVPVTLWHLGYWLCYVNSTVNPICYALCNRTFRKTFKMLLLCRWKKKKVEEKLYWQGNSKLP
- method_description: Displacement of [3H]-NMS from human muscarinic M5 receptor expressed in CHO-K9 cells after 3 hrs by microbeta2 scintillation counting method
- Format: cell-based
observed_property: Ki (nM)

Solved cases (4 shown):
>  <smiles>
N=C(N)NCCC[C@H](N)C(=O)NCCCCC1CCN(CC(=O)N2c3ccccc3NC(=O)c3ccccc32)CC1

>  <assay_system>
Muscarinic acetylcholine receptor M5 (Homo sapiens)

>  <observed_property>
Ki

>  <measured_result>
2400

$$$$
>  <smiles>
CC(=O)N[C@@H](Cc1c[nH]c2ccccc12)C(=O)N[C@@H](C)C(=O)N[C@@H](Cc1ccc(O)cc1)C(=O)NCCN1CCN(CCCCC2CCN(CC(=O)N3c4ccccc4NC(=O)c4ccccc43)CC2)CC1

>  <assay_system>
Muscarinic acetylcholine receptor M5 (Homo sapiens)

>  <observed_property>
Ki

>  <measured_result>
30.9

$$$$
>  <smiles>
CC(=O)N[C@@H](C)C(=O)N[C@@H](C)C(=O)NCCN1CCN(CCCCC2CCN(CC(=O)N3c4ccccc4NC(=O)c4ccccc43)CC2)CC1

>  <assay_system>
Muscarinic acetylcholine receptor M5 (Homo sapiens)

>  <observed_property>
Ki

>  <measured_result>
457

$$$$
>  <smiles>
CC(=O)N[C@@H](CCC(N)=O)C(=O)N[C@@H](C)C(=O)N[C@@H](CC(C)C)C(=O)NCCCCC1CCN(CC(=O)N2c3ccccc3NC(=O)c3ccccc32)CC1

>  <assay_system>
Muscarinic acetylcholine receptor M5 (Homo sapiens)

>  <observed_property>
Ki

>  <measured_result>
1200

$$$$

a: CC(=O)N[C@@H](Cc1c[nH]c2ccccc12)C(=O)N[C@@H](Cc1ccc(O)cc1)C(=O)NCCN1CCN(CCCCC2CCN(CC(=O)N3c4ccccc4NC(=O)c4ccccc43)CC2)CC1
b: CC(=O)N[C@@H](CCCNC(=N)N)C(=O)N[C@@H](CCCCN)C(=O)NCCCCC1CCN(CC(=O)N2c3ccccc3NC(=O)c3ccccc32)CC1
Problem: Given the listed records, identify the one among a and b with higher Ki. Lab note: record the label of whichever item you select.
Solution: b
(b: 501 nM, a: 38.9 nM)

Recorded values, source ChEMBL document CHEMBL4396879.
